System: NCI-H226 lung
TEST DESCRIPTION: NCI tumour cell line growth inhibition, 48 h
Would you kindly list TGI for each of these compounds?

Query C/C=C/C=C\C=C/C(O)C(C)C(CCC(C)C1OC(=O)C=CC1C)OP(=O)(O)O (stereo not given) yields TGI of 2.02 µM

Query CC(=O)O[C@H]1CCN2C(=O)C=CC(OCc3ccccc3)C12 (stereo not given in full) yields TGI of > 100 µM

Query c1ccncc1 yields TGI of > 100 µM

Give TGI for all compounds that follow.
1. CNC(=O)C1(C#N)C(c2ccccc2)C(C#N)(C(=O)NC)C1c1ccccc1 (stereo not given)
2. COc1ccc(C2ON(c3ccccc3)CC=C2C)cc1 (stereo not given)
3. COc1cc2c(c(O)c1OC)C(=O)[C@@H]1CCC(=O)N1C2c1ccccc1 (stereo not given in full)
4. Cc1[nH]c2ccccc2c1CC/C(=N\Nc1ccccc1)c1ccccc1
5. Oc1ccc2ccccc2c1N=Nc1cc(Cl)ccc1Cl
6. C/C=C(/C)C(=O)O[C@H]1[C@H]2[C@@H]([C@@H](OC(C)=O)[C@H](C)C(=O)[C@@]34C[C@@H](C)C(=O)[C@]3(/C=C(\C)[C@H]1OC(C)=O)O4)C2(C)C

[reply]
1. > 100 µM
2. > 100 µM
3. > 100 µM
4. > 100 µM
5. > 50 µM
6. 6.56 µM

Give TGI for all compounds that follow.
1. C=C(C)[C@@H]1CCC2=C[C@H](C/C(C)=C\C3=CC(C)=C(O3)[C@H]1O)OC2=O
2. CON(C)C(=O)[C@H]1C[C@@]1(C)CO
3. C=C1[C@H](OCC(C)C)[C@@H](O)[C@@H](OC(=O)c2cccnc2)C(C)(C)/C=C/[C@H](C)[C@H](OC(C)=O)[C@@]2(O)C[C@@](C)(OC(C)=O)[C@H](OC(=O)c3ccccc3)[C@@H]2[C@H]1OC(C)=O
4. O=C(CCc1ccccc1)NS(=O)(=O)c1ccccc1
5. Cn1c2c(c3ccccc31)CCN(CCCCN1CCN(c3ccccc3)CC1)C2=O

[reply]
["> 100 µM", "> 100 µM", "4.57 µM", "> 100 µM", "> 87 µM"]

Give TGI for all compounds that follow.
1. CCCCCCn1c(SC)nc(COC(=O)NC)c1COC(=O)NC
2. COC(=O)c1ncc2c(=O)[nH]c3ccccc3c2c1C(=O)OC
3. NS(=O)(=O)c1ccc(Nc2c3ccccc3nc3c(C(=O)N4CCN(CCO)CC4)cccc23)cc1
4. O=C1OC(C2Cc3ccc4c(c3C2=O)CCC4)c2ccccc21 (stereo not given)

[reply]
33.3 µM
> 100 µM
> 100 µM
83.6 µM

Give TGI for all compounds that follow.
1. COc1ccc2[nH]c3c(c2c1)CC(=O)N1CCCC(CC3O)C1 (stereo not given)
2. CCOc1ccc(/C=C/c2cc(OC)c(OC)c(OC)c2)cc1

[reply]
> 100 µM
> 26.1 µM

====

Test system: HCT-15 colon
TEST DESCRIPTION: NCI tumour cell line growth inhibition, 48 h
READOUT TYPE: TGI

Query O=C(COc1cccc(/C=C2\CSc3ccc(Cl)cc3C2=O)c1)c1ccc(Cl)cc1 yields TGI of 3.9 µM

Query CN(C)C=Nc1c2ccccc2nc2ccccc12 yields TGI of 32.8 µM

Query C#CC(=O)Nc1cccc2c1cc(C)n2-c1nc2c(c(NCc3ccccc3)n1)CCCC2 yields TGI of 0.409 µM

Query CC(C)(Oc1ccc(Cl)cc1)C(=O)N(C(=O)N1CCCCC1)c1ccccc1 yields TGI of 24.6 µM

Query N/N=C(\c1nc2ccc([N+](=O)[O-])cc2[nH]c1=O)C(O)c1ccc(Cl)c(Cl)c1 (stereo unspecified) yields TGI of > 100 µM

Give TGI for all compounds that follow.
1. O=C(O)C1(Cc2ccccc2)Cc2cc3c(cc2C1)CCC3
2. CCOC(=O)C(NC(C)=O)(Nc1ccc(S(N)(=O)=O)cc1)C(F)(F)F (stereo unspecified)
3. CC(=O)Nc1ccc(C(=O)NN2C(=O)CSC2c2ccc(O)cc2)cc1 (stereo unspecified)
4. c1cc2nnsc2s1
5. CC(C)(C)c1cc(/C=N/NC(=O)c2ccccc2NC(=O)c2cccs2)c(O)c(C(C)(C)C)c1

[reply]
1. > 100 µM
2. > 100 µM
3. > 100 µM
4. > 100 µM
5. > 100 µM

====

Tested on: OVCAR-8 ovarian
TEST DESCRIPTION: NCI tumour cell line growth inhibition, 48 h
READOUT TYPE: TGI

Some compounds with recorded TGI:
The value of TGI recorded for O=C(O)CC(NC(=O)/C(=C/c1ccccc1)NC(=O)c1ccccc1)C(=O)O (stereo not given) when tested on OVCAR-8 ovarian reads > 100 µM

The value of TGI recorded for O=C(Oc1c(Cl)cc(C2(c3cc(Cl)c(OC(=O)c4ccccc4)c(Cl)c3)CCCCC2)cc1Cl)c1ccccc1 when tested on OVCAR-8 ovarian reads 34.1 µM

The value of TGI recorded for O=C(NNC1=NCCCN1)c1ccco1 when tested on OVCAR-8 ovarian reads > 100 µM

The value of TGI recorded for COc1ccc2c(C)c(Oc3c(Cl)c(Cl)c(O)c(C#N)c3C#N)oc2c1 when tested on OVCAR-8 ovarian reads > 100 µM

Lab note: next compound to report on.
The value of TGI recorded for Cn1cc(C2=C(c3cn(-c4ccccc4)c4ccccc34)C(=O)NC2=O)c2ccccc21 when tested on OVCAR-8 ovarian reads > 25 µM

====

Tested on: NCI-H226 lung
TEST DESCRIPTION: NCI tumour cell line growth inhibition, 48 h
READOUT TYPE: TGI (µM)
Numbers only, in µM.

Some molecules with recorded TGI:
Query COC1=C(C)C(=O)c2c(c(CCCl)c3n2CCC3OC(C)=O)C1=O (stereo unspecified) yields TGI of 1.03

Query C=C1C(=O)O[C@H]2[C@H](OC(C)=O)[C@@H](C)CCCC3(C)OC3CCC3(CO3)[C@H](O)C[C@@H]12 (stereo partly specified) yields TGI of 31.7

Query COc1ccc(NC2=C(I)C(=O)c3ncccc3C2=O)cc1 yields TGI of 2.83

Give TGI for all molecules that follow.
1. COc1ccc(C(=NN=C(N)N)c2ccc(OC)cc2)cc1
2. COc1ccc(N2C(=O)C3c4[nH]c5ccccc5c4C4CC(C)(C)CC(C)(C)C4C3C2=O)cc1 (stereo unspecified)

[reply]
18.3
29.3

Give TGI for all molecules that follow.
1. NC(=S)N/N=C1\c2ccccc2-c2c(F)c(F)c(F)c(F)c21
2. COC(=O)C1=C(C)N2CCSC2(C)C(C(=O)OC)C1c1cccc(Cl)c1 (stereo unspecified)
3. Cc1c(/C=N/NC(=S)Nc2ccc(Cl)cc2)c(=O)n(-c2ccccc2)n1C
4. Clc1cc(Cl)c2cc3cccc[n+]3cc2c1Cl
5. CN(CC(=O)O)Cc1c(O)c(Cl)cc(Cl)c1Cl
6. COc1ccc2nc3c([N+](=O)[O-])ccc4c3c(c2c1)NCCN4CCN(C)C
7. CC(c1ccc2c(c1)CCC1C2CC2OC23CC=CC(=O)[C@]13C)C1C[C@]2(C)O[C@]2(C)[C@H](O)O1 (stereo partly specified)

[reply]
1. 28.9
2. 47.4
3. 53.8
4. 43.6
5. 92.1
6. 7.13
7. 72

====

Would you kindly list TGI for each of these molecules?
System: NCI-H460 lung
TEST DESCRIPTION: NCI tumour cell line growth inhibition, 48 h
Where a SMILES comes first, the peptide text is derived from it.

Query COc1c(/C=C/C=O)cc2c(c1OC)OCO2 yields TGI of > 100 µM

Query O=c1cc(NNCc2ccccc2)[nH]c(=O)[nH]1 yields TGI of > 100 µM

Give TGI for all molecules that follow.
1. O=C(O)CC(NC(=O)/C(=C/c1ccccc1)NC(=O)c1ccccc1)C(=O)O (centres undefined)
2. NC(=O)C1CCCN1C(=O)C(N)Cc1ccccc1 (stereo not drawn) (H-Phe-Pro-NH2; configuration not given here)
3. COc1ccc(C2ON(c3ccccc3)CC=C2C)cc1 (centres undefined)
4. O=[N+]([O-])c1ccc(N/N=C2/CC3=C2CCCCCCCCCC3)c([N+](=O)[O-])c1

[reply]
1. > 100 µM
2. > 100 µM
3. > 100 µM
4. > 100 µM

Give TGI for all molecules that follow.
1. C=CC(=O)NC(N)=NC#N
2. CC(C)(C)CC(C)(C)c1ccc(O)c(Cc2ccc(Cl)cc2Cl)c1
3. Clc1cc(Cl)c(OCCCCCCN2CCNCC2)c(Cl)c1
4. CC(C)(C)C(=O)Nc1cccc2oc(-c3ccccc3)cc12
5. CC12CCC(=O)N1c1cncnc1N2 (centres undefined)
6. Cc1ccc(Cc2nn(C)c(=O)n2N)cc1
7. CC(=O)Nc1cccc(N2C(=O)/C(=C\c3cccc(Oc4ccccc4)c3)S(=O)(=O)C2c2ccccc2)c1 (centres undefined)

[reply]
["360 µM", "2.97 µM", "4.15 µM", "> 100 µM", "> 10 µM", "> 100 µM", "> 100 µM"]

Give TGI for all molecules that follow.
1. CSc1ccc2c(cc1=O)[C@@H](NC(=O)c1ccc(Cl)cc1)CCc1cc(O)c(O)c(O)c1-2
2. CC(C)(C)c1ccc2c(c1)C#Cc1cc(C(C)(C)C)ccc1OCCCO2

[reply]
1. > 100 µM
2. > 100 µM
